EXPERIMENTAL TARGET: human P2X3 receptor (homomeric P2X3 channels) (Homo sapiens)
Construct: expressed in transfected cells; host or cells: HEK293 human embryonic kidney cells (HEK-hP2X3)
Sequence (P56373 whole entry): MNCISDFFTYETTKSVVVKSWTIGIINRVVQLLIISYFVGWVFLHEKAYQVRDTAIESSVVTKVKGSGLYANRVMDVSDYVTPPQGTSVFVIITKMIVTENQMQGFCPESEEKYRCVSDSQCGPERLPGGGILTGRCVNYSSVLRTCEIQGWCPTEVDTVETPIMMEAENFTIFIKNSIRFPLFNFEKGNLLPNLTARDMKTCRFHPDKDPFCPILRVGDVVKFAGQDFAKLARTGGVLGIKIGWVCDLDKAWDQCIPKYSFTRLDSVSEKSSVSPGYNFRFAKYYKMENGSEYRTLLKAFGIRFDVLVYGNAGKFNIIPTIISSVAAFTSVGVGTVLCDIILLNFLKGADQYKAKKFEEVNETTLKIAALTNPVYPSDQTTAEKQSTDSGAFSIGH
TEST DETAILS: FlexStation calcium fluorescence assay, homomeric P2X3 channels in HEK293 cells
Format: cell-based
EXPERIMENTAL SETUP: HEK293 cells, hP2X3; agonist 1 μM α,β-meATP; read-out: Average pIC50 P2X3 (converted)
MEASUREMENT NAME: IC50 (nM)

COc1cc(Nc2cnc(N)nc2N)c(C(C)C)cc1OC [Compound 47] | 49
COc1ccc(Oc2cnc(N)nc2N)c(C(C)C)n1 [Compound 14] | 1260
COCCOCCNc1ncc(Oc2cc(OC)c(OC)cc2C(C)C)c(N)n1 [Compound 24] | 1580
COc1cc(Oc2cnc(N)nc2NCCN(C)C)c(C(C)C)cc1OC [Compound 38] | 158

[I] COc1cc(Oc2cnc(NCC(O)CO)nc2N)c(C(C)C)cc1OC (stereo not shown) [Compound 31]
[II] CCNc1ncc(Oc2cc(OC)c(OC)cc2C(C)C)c(N)n1 [Compound 29]
[III] COc1cc(C(C)C)c(Sc2cnc(N)nc2N)cc1C(=O)O [Compound 12]
[IV] COc1nc(C(C)C)c(Oc2cnc(N)nc2N)cc1I [Compound 15]
[V] C#Cc1cc(Oc2cnc(N)nc2N)c(C(C)C)nc1OC [Compound 19]
Data request: Falling order of IC50, please. Quick reminder: the answer is the labels in the order asked.
Data returned: III, II, I, IV, V
(III: 5010 nM, II: 398 nM, I: 200 nM, IV: 63.1 nM, V: 6.31 nM)
